Reference source: patent EP2658867B1

Molecular target: T1, integrin αVβ5 (UniProt P06756 31-992; P18084 24-719)
T1 construct: Coated on the ELISA plate
T1 sequence (P06756 31-992, chain 1 of 2): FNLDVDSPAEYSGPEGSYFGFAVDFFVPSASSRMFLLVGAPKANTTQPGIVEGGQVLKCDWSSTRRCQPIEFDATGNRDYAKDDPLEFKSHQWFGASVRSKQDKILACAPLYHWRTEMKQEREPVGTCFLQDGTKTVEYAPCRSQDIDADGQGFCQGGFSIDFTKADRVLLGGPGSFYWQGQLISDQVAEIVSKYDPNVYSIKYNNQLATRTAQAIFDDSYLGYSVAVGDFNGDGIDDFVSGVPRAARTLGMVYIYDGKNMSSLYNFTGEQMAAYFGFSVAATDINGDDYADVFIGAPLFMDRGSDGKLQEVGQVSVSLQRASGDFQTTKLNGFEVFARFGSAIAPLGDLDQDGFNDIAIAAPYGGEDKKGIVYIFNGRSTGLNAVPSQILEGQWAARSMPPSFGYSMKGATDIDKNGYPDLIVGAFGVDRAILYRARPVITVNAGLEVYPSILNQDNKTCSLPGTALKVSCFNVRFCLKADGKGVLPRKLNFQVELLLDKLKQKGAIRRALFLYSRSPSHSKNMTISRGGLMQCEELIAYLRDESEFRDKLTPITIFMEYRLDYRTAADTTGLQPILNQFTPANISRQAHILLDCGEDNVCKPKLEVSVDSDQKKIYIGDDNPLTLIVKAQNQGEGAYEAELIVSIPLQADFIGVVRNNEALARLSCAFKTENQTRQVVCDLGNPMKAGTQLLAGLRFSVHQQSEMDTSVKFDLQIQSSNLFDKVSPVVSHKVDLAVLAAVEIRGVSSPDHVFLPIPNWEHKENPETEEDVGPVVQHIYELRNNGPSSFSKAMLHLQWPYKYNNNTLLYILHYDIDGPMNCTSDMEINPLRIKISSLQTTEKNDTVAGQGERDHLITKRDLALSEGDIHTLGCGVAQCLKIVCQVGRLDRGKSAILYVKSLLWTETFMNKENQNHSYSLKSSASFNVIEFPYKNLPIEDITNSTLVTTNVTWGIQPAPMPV
T1 sequence (P18084 24-719, chain 2 of 2): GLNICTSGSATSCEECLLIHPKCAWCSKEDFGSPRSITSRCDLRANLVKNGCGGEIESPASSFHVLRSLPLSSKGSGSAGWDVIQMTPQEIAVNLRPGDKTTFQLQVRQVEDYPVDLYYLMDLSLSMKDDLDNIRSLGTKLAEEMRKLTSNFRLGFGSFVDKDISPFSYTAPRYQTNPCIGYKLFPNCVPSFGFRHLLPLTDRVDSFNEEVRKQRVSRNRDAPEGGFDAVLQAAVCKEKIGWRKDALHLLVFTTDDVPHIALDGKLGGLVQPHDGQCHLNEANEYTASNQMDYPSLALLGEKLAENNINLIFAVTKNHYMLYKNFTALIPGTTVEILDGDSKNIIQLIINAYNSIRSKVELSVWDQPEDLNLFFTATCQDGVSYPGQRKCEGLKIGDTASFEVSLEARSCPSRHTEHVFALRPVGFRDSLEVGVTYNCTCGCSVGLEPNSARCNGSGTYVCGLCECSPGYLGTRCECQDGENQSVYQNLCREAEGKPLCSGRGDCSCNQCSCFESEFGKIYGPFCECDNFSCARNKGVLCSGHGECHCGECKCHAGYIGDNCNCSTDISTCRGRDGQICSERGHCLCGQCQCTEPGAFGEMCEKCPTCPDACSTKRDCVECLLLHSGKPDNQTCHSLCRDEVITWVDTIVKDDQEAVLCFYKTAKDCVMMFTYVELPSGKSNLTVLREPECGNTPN
Test: phage ELISA, integrin coated, anti-M13-HRP
Please note: signal exactly at 0.5 OD is not satisfied. Only values below 0.5 OD get satisfied.

Solved cases below.
INSERT INTO measurements (binder, assigned_label) VALUES
  ('M13 phage pKK100 displaying MICA α3 domain with extended loop 3.2sp in loop 1 (designed binder, not shown: large carriers) TVPPMVNVTSGGSGGGSTSRGDHPRTQSGGSGGGVTCRASGFYPWNITLSWRQDGVSLSHDTQQWGDVLPDGNGTYQTWVATRICQGEEQRFTCYMEHSGNHSTHPVPSGK', 'satisfied'),
  ('M13 phage pKK112 displaying MICA α3 domain with tight T-AMY (loop 1 from tendamistat) in loop 1 (designed binder, not shown: large carriers) TVPPMVNYQSWRYSQCRASGFYPWNITLSWRQDGVSLSHDTQQWGDVLPDGNGTYQTWVATRICQGEEQRFTCYMEHSGNHSTHPVPSGK', 'not satisfied'),
  ('M13 phage pKK94 displaying MICA α3 domain with loop 3.3 in loop 1 (designed binder, not shown: large carriers) TVPPMVNVTRVPRGDSDLTVTCRASGFYPWNITLSWRQDGVSLSHDTQQWGDVLPDGNGTYQTWVATRICQGEEQRFTCYMEHSGNHSTHPVPSGK', 'not satisfied');

Data request: Please check: signal for M13 phage pKK106 displaying wild type MICA α3 domain fused to pIII (other, also called WT; not shown: M13 phage capsid protein pIII, C-terminal portion, fused at codon position 198) TVPPMVNVTRSEASEGNITVTCRASGFYPWNITLSWRQDGVSLSHDTQQWGDVLPDGNGTYQTWVATRICQGEEQRFTCYMEHSGNHSTHPVPSGK , strictly under 0.5 OD or not?
Data returned: satisfied

Data request: Another binder to look at: M13 phage pKK108 displaying MICA α3 domain with tight T-3.5 in loop 1 (designed binder, α3 amplified from pKK53; also called 1-T-3.5; not shown: M13 phage capsid protein pIII, C-terminal portion, fused at codon position 198) TVPPMVNGSRGDSLIMHCRASGFYPWNITLSWRQDGVSLSHDTQQWGDVLPDGNGTYQTWVATRICQGEEQRFTCYMEHSGNHSTHPVPSGK
Data returned: satisfied

Data request: Another binder to look at: M13 phage pKK97 displaying MICA α3 domain with loop 5.2 in loop 1 (designed binder, not shown: large carriers) TVPPMVNVTRGDTFTQSVTCRASGFYPWNITLSWRQDGVSLSHDTQQWGDVLPDGNGTYQTWVATRICQGEEQRFTCYMEHSGNHSTHPVPSGK
Data returned: not satisfied
